Taken from paper PMC7918738.

Provide the recorded Annexin V-FITC/PI 72 h Necrosis for the entries that follow.
Tested on: SKOV3 cells
Assay: Annexin V-FITC/PI cell death quantification in SKOV3
Type: cell-based, human
Details: SKOV3, 72 h; 38 600 nM, 42 50 nM, 45 400 nM, paclitaxel 10 nM
One number for each entry, in %.

Illustrative cases are given below, each with its answer.
COc1ccc(S(=O)(=O)N(C)c2cc(OC)c(OC)c(OC)c2)cc1N : 0.7
COc1ccc(S(=O)(=O)N(Cc2ccccc2)c2cc(OC)c(OC)c(OC)c2)cc1N : 1.3
CC(=O)O[C@H]1C(=O)[C@@]2(C)[C@H]([C@H](OC(=O)c3ccccc3)[C@]3(O)C[C@H](OC(=O)[C@H](O)[C@@H](NC(=O)c4ccccc4)c4ccccc4)C(C)=C1C3(C)C)[C@]1(OC(C)=O)CO[C@@H]1C[C@@H]2O [Paclitaxel, reference compound] : 2.4

// next entry
**Query** # lookup: Annexin V-FITC/PI 72 h Necrosis of `CNc1ccc(S(=O)(=O)N(C)c2cc(OC)c(OC)c(OC)c2)cc1`
**Result** 1.8

* * *

Provide the recorded solubility at 48 h for the entries that follow.
Assay: Aqueous solubility, saturation shake-flask method, UV absorbance
Settings: phosphate buffer, pH 7, aqueous buffer, thermodynamic from solid
Give bare numbers, in µg/mL.

COc1cc(NS(=O)(=O)c2ccc(NC=O)cc2)cc(OC)c1OC : 27

For every item below, please supply its solubility at 48 h.
1. COc1ccc(S(=O)(=O)Nc2cc(OC)c(OC)c(OC)c2NC(=O)CNC(=O)OC(C)(C)C)cc1
2. COc1ccc(S(=O)(=O)N(C)c2cc(OC)c(OC)c(OC)c2)cc1
3. COc1cc(N(C)S(=O)(=O)c2ccc(N(C)C)cc2)cc(OC)c1OC [Compound 29a]

**Result**
1: 357; 2: 27; 3: 7

* * *

Test system: MCF7 cells
Experiment: Annexin V-FITC/PI cell death quantification in MCF7
Assay type: cell-based, human
Conditions: MCF7, 6 days; 38 600 nM, 42 50 nM, 45 400 nM, CA-4 50 nM
Reported Property: Annexin V-FITC/PI 6 Days Necrosis (%)
Answers are plain numbers, in %.

COc1ccc(/C=C\c2cc(OC)c(OC)c(OC)c2)cc1O [Combretastatin A-4, reference compound] : 0.4
COc1ccc(S(=O)(=O)N(C)c2cc(OC)c(OC)c(OC)c2)cc1N [Compound 42] : 0.3
COc1ccc(S(=O)(=O)N(Cc2ccccc2)c2cc(OC)c(OC)c(OC)c2)cc1N [Compound 45] : 0.3

// next entry
**Query** # lookup: Annexin V-FITC/PI 6 Days Necrosis of CNc1ccc(S(=O)(=O)N(C)c2cc(OC)c(OC)c(OC)c2)cc1 [Compound 38]
**Result** 0.3

* * *

Test: Aqueous solubility, saturation shake-flask method, UV absorbance
Conditions: pH 7, aqueous buffer, thermodynamic from solid
Reported Property: solubility at 48 h

**Query** # lookup: solubility at 48 h of COc1ccc(S(=O)(=O)Nc2cccnc2Nc2ccc(O)cc2)cc1 [ABT-751, reference compound]
**Result** 40 µg/mL

* * *

Assay: Aqueous solubility, saturation shake-flask method, UV absorbance
Conditions: phosphate buffer, pH 7, aqueous buffer, thermodynamic from solid
We use 50 µg/mL as the dividing line for solubility at 48 h: on or above the line is YES, below is NO.

COc1ccc(S(=O)(=O)N(Cc2ccccc2)c2cc(OC)c(OC)c(OC)c2)cc1N : NO
COc1ccc(S(=O)(=O)N(CC#N)c2cc(OC)c(OC)c(OC)c2)cc1N : NO
CNc1ccc(S(=O)(=O)Nc2cc(OC)c(OC)c(OC)c2)cc1 : NO
COc1ccc(S(=O)(=O)N(C(C)=O)c2cc(OC)c(OC)c(OC)c2)cc1 : NO

# ---- query compound ----
**Query** Form field: solubility at 48 h at least 50 µg/mL? Entry: `COc1ccc(S(=O)(=O)Nc2cc(OC)c(OC)c(OC)c2)cc1N`
**Result** YES
